Data origin: patent US20250027068

Enzyme Activity Endpoint Assay (purified): scIgG values, listed per item
Study system: pooled human IgG (human IgG1,2,3 and 4)
Reported metric: Enzyme Activity Endpoint Assay (purified): scIgG (ng/µL)

Protein	Numeric result
PRT-368 (protein) MSQTEDSESLQRLRDIEDFQAEKKDQNVVYTKWLDGVDVKDHDFRKIVDGNIAYYATPLLNGRGWYDINKDFNRDNDKCAAAVAANMFHYWLDRNRDNVDRFLRQNPEKHGIIELPDGQLKLSDFLNTYESDDGYRDKSKLFDFISENFNGPVWTDKLLDNYINGYAYNYKYGRTIEDSTKNTSKINFFKEVFNEKILTNNHSIRNQNEFSVLLIEALYTGKAIGLSYGPAGLRHSLGHIISVWGADLDADGNVVAIYVTDSDDKKLTIGDERVGLKRYKISTDDEGRLRLTAYEETHNTGGQVRGLWTLDTGKQAWADYFDKTEQTGTDQAEQ	0
PRT-350 (protein) MSQTEDSESLQRLRDIEDFQAEKKDQNVVYTKWLDGVDVKDHDFRKIVDGNSAYYATPLLNGRGWYDINKDFNRDSDKCAAAVAANMFHYWLDINRDNVDRFLRQNPEKHGIIELPDGQLKLSDFLNTYESDHGYRDKSKLFDFISENFNGPVWTDKLLDNYINGYAYNYKYGRTIEDPTKNTSKINFFKEVFNEKILTNNHSIRNQNEFSVLLIEALYTGKAIGLSYGPAGLRHSLGHIISVWGADLDADGNVVAIYVTDSDDKKLTIGDERVGLKRYKISTDDENRLRLTAYEETHNTGGQVRGLWTLDTGKYAWADYFDKTEQTGTDQAEQ	200
PRT-362 (protein) MSQTEDSESLQRLRDIEDFQAEKKKQNVVYTKWLDGVDVKDHDFRKIVDGNSAYYATPLLNGRGFYDINKDFNRDSDKCAAAVAANMFHYWLDRNRDNVDRFLRQNPEKHGIIELPDGQLKLSDFLNTYESDDGYRDKSKLFDFISENFNGPVWTDKLLDNYINGYAYNSKYGRTIEDPTKNTSKINFFKEVFNEKILTNNHSIRNQNEFSVLLIEALYTGKAIGLSYGPAGLRHGLGHIISVWGADLDADGNVVAIYVTDSDDKKLTIGDERVGLKRYKISTDDEGRLRLTAYEETHNTGGQIRGLWTLDTGKQAWADYFDKTEQTGTDQAEQ	299
PRT-347 (protein) MSQTEDSESLQRLRDIEDFQAEKEMQNVVYTKWLDGVDVKDHDFRKIVDGNSAYYATPLLNGRGWYDINKDFNRDSDKCAAAVAANMFHYWLDINRDNVDRFLRQNPEKHGIIELPDGQLKLSDFLNTYESDHGYRDKSKLFDFISNNFNGPVWTDKLLDNYINGYAYNYKYGRTIEDPTKNTSKINFFKEVFNEKILTNNHSIRNQNEFSVLLSEALYTGKAIGLSYGPAGLRHSLGHIISVWGADLDADGNVVAIYVTDSDDKKLTIGDERVGLKRYKISTDDENRLRLTAYEETHNTGGQVRGLWTLDTGKYAWADYFDKTEQTGTDQAEQ	309
